Taken from paper PMC12673082.

Target: pdP2X7 M105F (Ailuropoda melanoleuca, UniProt G1M6C4, M106F)
Sequence (G1M6C4 2-595 M106F): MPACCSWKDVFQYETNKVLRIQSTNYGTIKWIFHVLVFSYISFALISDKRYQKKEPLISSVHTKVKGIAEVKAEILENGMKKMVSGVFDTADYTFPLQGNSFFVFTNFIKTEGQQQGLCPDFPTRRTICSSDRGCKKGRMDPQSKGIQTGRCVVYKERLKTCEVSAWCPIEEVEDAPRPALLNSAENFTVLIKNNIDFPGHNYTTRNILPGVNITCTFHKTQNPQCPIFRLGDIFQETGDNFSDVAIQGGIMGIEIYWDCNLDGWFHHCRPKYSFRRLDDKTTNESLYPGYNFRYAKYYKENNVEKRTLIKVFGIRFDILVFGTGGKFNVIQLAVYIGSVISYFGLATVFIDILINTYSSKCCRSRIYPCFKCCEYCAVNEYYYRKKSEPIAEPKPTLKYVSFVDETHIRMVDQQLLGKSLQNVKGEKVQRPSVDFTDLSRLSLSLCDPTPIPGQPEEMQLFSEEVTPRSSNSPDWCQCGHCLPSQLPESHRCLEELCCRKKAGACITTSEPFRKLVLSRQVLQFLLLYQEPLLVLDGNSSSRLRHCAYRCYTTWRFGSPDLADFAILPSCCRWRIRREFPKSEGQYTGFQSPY
Assay: cell-based
Readout Type: IC50 (nM)
Provide only the numeric value, understood in nM.

Qu. Lookup: IC50 / pdP2X7 M105F (Ailuropoda melanoleuca, UniProt G1M6C4, M106F) / C=CC[C@@H]1c2ccc(OC)c(OC)c2CN2CCc3cc4c(cc3[C@H]12)OCO4 [PSFL1191]
Ans. 2060

----------
Biological target: hP2X7 E305F (Homo sapiens, UniProt Q99572, E305F)
Sequence (Q99572 1-595 E305F): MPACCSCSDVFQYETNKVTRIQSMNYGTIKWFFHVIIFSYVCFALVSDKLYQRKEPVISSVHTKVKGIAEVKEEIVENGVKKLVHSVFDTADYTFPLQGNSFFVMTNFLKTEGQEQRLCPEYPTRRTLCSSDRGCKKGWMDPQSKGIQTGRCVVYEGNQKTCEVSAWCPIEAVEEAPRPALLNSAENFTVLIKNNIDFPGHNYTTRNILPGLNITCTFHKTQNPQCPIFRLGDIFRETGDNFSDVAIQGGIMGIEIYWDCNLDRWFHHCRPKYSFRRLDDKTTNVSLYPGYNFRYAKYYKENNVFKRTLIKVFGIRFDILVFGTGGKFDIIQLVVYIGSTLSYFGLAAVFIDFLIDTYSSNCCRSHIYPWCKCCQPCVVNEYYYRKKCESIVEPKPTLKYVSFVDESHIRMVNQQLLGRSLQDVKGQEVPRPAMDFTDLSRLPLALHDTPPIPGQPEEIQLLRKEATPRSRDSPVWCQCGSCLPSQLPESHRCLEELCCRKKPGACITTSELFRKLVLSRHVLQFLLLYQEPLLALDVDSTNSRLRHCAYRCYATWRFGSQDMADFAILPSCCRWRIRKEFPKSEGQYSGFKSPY
Experiment: Whole-cell patch clamp, hP2X7 mutant
Readout Type: IC50

Qu. Need IC50, item COc1ccc2cc3[n+](cc2c1OC)CCc1cc2c(cc1-3)OCO2 [berberine]
Ans. 87.7 µM

----------
Molecular target: mP2X7 A312V (Mus musculus, UniProt Q9Z1M0, A312V)
Sequence (Q9Z1M0 whole entry A312V): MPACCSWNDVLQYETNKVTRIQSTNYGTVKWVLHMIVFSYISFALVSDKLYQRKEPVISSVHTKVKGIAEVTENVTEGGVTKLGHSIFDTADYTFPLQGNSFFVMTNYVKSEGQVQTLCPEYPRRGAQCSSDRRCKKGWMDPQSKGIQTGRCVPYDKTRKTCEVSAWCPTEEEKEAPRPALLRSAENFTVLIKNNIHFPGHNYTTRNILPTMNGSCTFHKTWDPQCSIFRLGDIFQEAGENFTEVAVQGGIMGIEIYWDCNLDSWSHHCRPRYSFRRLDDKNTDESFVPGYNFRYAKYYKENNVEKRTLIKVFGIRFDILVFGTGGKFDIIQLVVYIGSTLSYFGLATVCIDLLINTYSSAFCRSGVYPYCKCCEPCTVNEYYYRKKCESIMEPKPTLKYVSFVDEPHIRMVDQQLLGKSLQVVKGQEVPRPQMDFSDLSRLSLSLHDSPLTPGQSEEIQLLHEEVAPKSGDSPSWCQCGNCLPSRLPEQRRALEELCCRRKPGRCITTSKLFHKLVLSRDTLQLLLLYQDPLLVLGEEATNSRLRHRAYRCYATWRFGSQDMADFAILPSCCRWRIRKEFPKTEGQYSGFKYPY
Assay: Whole-cell patch clamp, mP2X7 mutant
Assay type: cell-based
Readout Type: pIC50
API: returns pIC50 as number; meaning -log10 of concentration in mol/L.

Qu. Need pIC50, item "C=CC[C@@H]1c2ccc(OC)c(OC)c2CN2CCc3cc4c(cc3[C@H]12)OCO4"
Ans. 6.04

----------
Assay: Maximal soluble concentration in recording solution
Type: physicochemical
Readout Type: solubility (µM)
Provide only the numeric value, understood in µM.

Qu. Need solubility, item "C=CC[C@@H]1c2ccc(OC)c(OC)c2CN2CCc3cc4c(cc3[C@H]12)OCO4"
Ans. 30

----------
Biological target: hP2X7 Y295F (Homo sapiens, UniProt Q99572, Y295F)
Experiment: Whole-cell patch clamp, hP2X7 mutant
Readout Type: pIC50
API: returns pIC50 as number; meaning -log10 of concentration in mol/L.

Qu. Need pIC50, item "COc1ccc2cc3[n+](cc2c1OC)CCc1cc2c(cc1-3)OCO2"
Ans. 4.33

----------
Molecular target: hP2X7 (Homo sapiens)
Assay: Whole-cell patch clamp, ATP-evoked current, transfected HEK293
Format: cell-based
Readout Type: IC50 (µM)
Provide only the numeric value, understood in µM.

{"columns": ["Sample Smiles", "Readout Type", "Observed Measurement"],
 "data": [
  ["C=CC[C@@H]1c2ccc(OC)c(OC)c2CN2CCc3cc4c(cc3[C@H]12)OCO4", "IC50", 0.248],
  ["COc1ccc2cc3[n+](cc2c1OC)CCc1cc2c(cc1-3)OCO2", "IC50", 12.7]
]}

Pending compound:
Qu. Lookup: IC50 / hP2X7 (Homo sapiens) / "C=CC[C@H]1c2ccc(OC)c(OC)c2CN2CCc3cc4c(cc3[C@@H]12)OCO4"
Ans. 12.6

----------
Target: pdP2X7 P96G (Ailuropoda melanoleuca, UniProt G1M6C4, P97G)
Sequence (G1M6C4 2-595 P97G): as the sequence (G1M6C4 2-595 M106F) above, with P96G, F105M counted along it
Assay: cell-based
Readout Type: IC50 (µM)
Provide only the numeric value, understood in µM.

Qu. Need IC50, item "C=CC[C@@H]1c2ccc(OC)c(OC)c2CN2CCc3cc4c(cc3[C@H]12)OCO4"
Ans. 8.06

----------
Target: hP2X7 I68F (Homo sapiens, UniProt Q99572, I68F)
Test: Whole-cell patch clamp, hP2X7 mutant
Readout Type: IC50
# number then unit; no other words

Qu. Need IC50, item COc1ccc2cc3[n+](cc2c1OC)CCc1cc2c(cc1-3)OCO2 [berberine]
Ans. 39.9 µM
